Cited source for all entries: patent US20250235545A1

# Tested on: SKBR3 (breast cancer tissue)
# assay protocol: cells
# Format: cell-based
# stated conditions: CCK8, 48 h; Table 6
Where a SMILES comes first, the peptide text is derived from it. The star is where a group is joined. Belotecan = CC[C@@]1(O)C(=O)OCc2c1cc1n(c2=O)Cc2c-1nc1ccccc1c2CCN(C(C)C)*; X7 = CC[C@@]1(O)C(=O)OCc2c1cc1n(c2=O)Cc2c-1nc1ccccc1c2CCN(C)*; Propanoyl(3-maleimido) = O=C1C=CC(=O)N1CCC(=O)*; PEG6 = NCCOCCOCCOCCOCCOCCOCCC(=O)O
Entries and their IC50 Breast cancer tissue (SKBR3)
property: IC50 Breast cancer tissue (SKBR3) (µg/mL)

[[record]]
molecule = "CC[C@@]1(O)C(=O)OCc2c1cc1n(c2=O)Cc2c-1nc1ccccc1c2CCN(C)C(=O)[C@H](CC(C)C)NC(=O)[C@H](CC(N)=O)NC(=O)[C@H](C)NC(=O)[C@H](C)NC(=O)CCOCCOCCOCCOCCOCCOCCNC(=O)CCN1C(=O)C=CC1=O [MI-6PEG-AANL-D1] ({Propanoyl(3-maleimido)-PEG6}-AANL-X7)"
property = "IC50 Breast cancer tissue (SKBR3)"
observed_value = 3.25

[[record]]
molecule = "CC[C@@]1(O)C(=O)OCc2c1cc1n(c2=O)Cc2c-1nc1ccccc1c2CCNC1CCC1"
property = "IC50 Breast cancer tissue (SKBR3)"
observed_value = 0.016

[[record]]
molecule = "CC[C@@]1(O)C(=O)OCc2c1cc1n(c2=O)Cc2c-1nc1ccccc1c2CCNCC(C)C"
property = "IC50 Breast cancer tissue (SKBR3)"
observed_value = 0.013

[[record]]
molecule = "CC[C@@]1(O)C(=O)OCc2c1cc1n(c2=O)Cc2c-1nc1ccccc1c2CCN(C(=O)[C@H](CC(C)C)NC(=O)[C@H](CC(N)=O)NC(=O)[C@H](C)NC(=O)[C@H](C)NC(=O)CCOCCOCCOCCOCCOCCOCCNC(=O)CCN1C(=O)C=CC1=O)C(C)C [MI-6PEG-AANL-Belotecan] ({Propanoyl(3-maleimido)-PEG6}-AANL-Belotecan)"
property = "IC50 Breast cancer tissue (SKBR3)"
observed_value = 2.48

[[record]]
molecule = "CCCNCCc1c2c(nc3ccccc13)-c1cc3c(c(=O)n1C2)COC(=O)[C@]3(O)CC"
property = "IC50 Breast cancer tissue (SKBR3)"
observed_value = 0.049


====

# Tested on: sarcoma SJSA-1 tumor model
# stated conditions: 45 mg/kg once a week for three weeks; Table 7
Where a SMILES comes first, the peptide text is derived from it. The star is where a group is joined. X8 = CC[C@@]1(O)C(=O)OCc2c1cc1n(c2=O)Cc2c-1nc1ccccc1c2CCN(C1CCCC1)*; X4 = CCCN(CCc1c2c(nc3ccccc13)-c1cc3c(c(=O)n1C2)COC(=O)[C@]3(O)CC)*; X5 = CC[C@@]1(O)C(=O)OCc2c1cc1n(c2=O)Cc2c-1nc1ccccc1c2CCN(CC(C)C)*; X3 = CC[C@@]1(O)C(=O)OCc2c1cc1n(c2=O)Cc2c-1nc1ccccc1c2CCN(C1CC1)*; X7 = CC[C@@]1(O)C(=O)OCc2c1cc1n(c2=O)Cc2c-1nc1ccccc1c2CCN(C)*; Propanoyl(3-maleimido) = O=C1C=CC(=O)N1CCC(=O)*; PEG6 = NCCOCCOCCOCCOCCOCCOCCC(=O)O
Listed here are compounds together with their documented Mouse weight (%).
property: Mouse weight (%)

[[record]]
compound = "CCCN(CCc1c2c(nc3ccccc13)-c1cc3c(c(=O)n1C2)COC(=O)[C@]3(O)CC)C(=O)[C@H](CC(C)C)NC(=O)[C@H](CC(N)=O)NC(=O)[C@H](C)NC(=O)[C@H](C)NC(=O)CCOCCOCCOCCOCCOCCOCCNC(=O)CCN1C(=O)C=CC1=O [MI-6PEG-AANL-D3] ({Propanoyl(3-maleimido)-PEG6}-AANL-X4)"
measurement_target = "sarcoma SJSA-1 tumor model"
observed_value = "+16%"

[[record]]
compound = "CC[C@@]1(O)C(=O)OCc2c1cc1n(c2=O)Cc2c-1nc1ccccc1c2CCN(C)C(=O)[C@H](CC(C)C)NC(=O)[C@H](CC(N)=O)NC(=O)[C@H](C)NC(=O)[C@H](C)NC(=O)CCOCCOCCOCCOCCOCCOCCNC(=O)CCN1C(=O)C=CC1=O [MI-6PEG-AANL-D1] ({Propanoyl(3-maleimido)-PEG6}-AANL-X7)"
measurement_target = "sarcoma SJSA-1 tumor model"
observed_value = "+29%"

[[record]]
compound = "CC[C@@]1(O)C(=O)OCc2c1cc1n(c2=O)Cc2c-1nc1ccccc1c2CCN(CC(C)C)C(=O)[C@H](CC(C)C)NC(=O)[C@H](CC(N)=O)NC(=O)[C@H](C)NC(=O)[C@H](C)NC(=O)CCOCCOCCOCCOCCOCCOCCNC(=O)CCN1C(=O)C=CC1=O [MI-6PEG-AANL-D5] ({Propanoyl(3-maleimido)-PEG6}-AANL-X5)"
measurement_target = "sarcoma SJSA-1 tumor model"
observed_value = "+17%"

[[record]]
compound = "CC[C@@]1(O)C(=O)OCc2c1cc1n(c2=O)Cc2c-1nc1ccccc1c2CCN(C(=O)[C@H](CC(C)C)NC(=O)[C@H](CC(N)=O)NC(=O)[C@H](C)NC(=O)[C@H](C)NC(=O)CCOCCOCCOCCOCCOCCOCCNC(=O)CCN1C(=O)C=CC1=O)C1CCCC1 [MI-6PEG-AANL-D8] ({Propanoyl(3-maleimido)-PEG6}-AANL-X8)"
measurement_target = "sarcoma SJSA-1 tumor model"
observed_value = "+17%"

[[record]]
compound = "CC[C@@]1(O)C(=O)OCc2c1cc1n(c2=O)Cc2c-1nc1ccccc1c2CCN(C(=O)[C@H](CC(C)C)NC(=O)[C@H](CC(N)=O)NC(=O)[C@H](C)NC(=O)[C@H](C)NC(=O)CCOCCOCCOCCOCCOCCOCCNC(=O)CCN1C(=O)C=CC1=O)C1CC1 [MI-6PEG-AANL-D6] ({Propanoyl(3-maleimido)-PEG6}-AANL-X3)"
measurement_target = "sarcoma SJSA-1 tumor model"
observed_value = "+17%"

[[record]]
compound = "CC[C@@]1(O)C(=O)OCc2c1cc1n(c2=O)Cc2c-1nc1ccccc1c2CCN(C)C(=O)[C@H](CC(C)C)NC(=O)[C@H](Cc1ccccc1)NC(=O)CNC(=O)CNC(=O)CCOCCOCCOCCOCCOCCOCCNC(=O)CCN1C(=O)C=CC1=O [MI-6PEG-GGFL-D1] ({Propanoyl(3-maleimido)-PEG6}-GGFL-X7)"
measurement_target = "sarcoma SJSA-1 tumor model"
observed_value = "+11%"


====

# Tested on: colo320 colorectal cancer tumor model
# stated conditions: 15 mg/kg once a week for four weeks; Table 8
Where a SMILES comes first, the peptide text is derived from it. The star is where a group is joined. Belotecan = CC[C@@]1(O)C(=O)OCc2c1cc1n(c2=O)Cc2c-1nc1ccccc1c2CCN(C(C)C)*; X2 = CCCCN(CCc1c2c(nc3ccccc13)-c1cc3c(c(=O)n1C2)COC(=O)[C@]3(O)CC)*; X4 = CCCN(CCc1c2c(nc3ccccc13)-c1cc3c(c(=O)n1C2)COC(=O)[C@]3(O)CC)*; X5 = CC[C@@]1(O)C(=O)OCc2c1cc1n(c2=O)Cc2c-1nc1ccccc1c2CCN(CC(C)C)*; Propanoyl(3-maleimido) = O=C1C=CC(=O)N1CCC(=O)*; PEG6 = NCCOCCOCCOCCOCCOCCOCCC(=O)O
property: colo320 (colorectal cancer cell) mean tumor volume (mm^3)

[[record]]
molecule = "CC[C@@]1(O)C(=O)OCc2c1cc1n(c2=O)Cc2c-1nc1ccccc1c2CCN(C(=O)[C@H](CC(C)C)NC(=O)[C@H](Cc1ccccc1)NC(=O)CNC(=O)CNC(=O)CCOCCOCCOCCOCCOCCOCCNC(=O)CCN1C(=O)C=CC1=O)C(C)C [MI-6PEG-GGFL-Belotecan] ({Propanoyl(3-maleimido)-PEG6}-GGFL-Belotecan)"
observed_value = "1254.2 mm^3"

[[record]]
molecule = "CCCN(CCc1c2c(nc3ccccc13)-c1cc3c(c(=O)n1C2)COC(=O)[C@]3(O)CC)C(=O)[C@H](CC(C)C)NC(=O)[C@H](CC(N)=O)NC(=O)[C@H](C)NC(=O)[C@H](C)NC(=O)CCOCCOCCOCCOCCOCCOCCNC(=O)CCN1C(=O)C=CC1=O [MI-6PEG-AANL-D3] ({Propanoyl(3-maleimido)-PEG6}-AANL-X4)"
observed_value = "1279.8 mm^3"

[[record]]
molecule = "CC[C@@]1(O)C(=O)OCc2c1cc1n(c2=O)Cc2c-1nc1ccccc1c2CCN(CC(C)C)C(=O)[C@H](CC(C)C)NC(=O)[C@H](CC(N)=O)NC(=O)[C@H](C)NC(=O)[C@H](C)NC(=O)CCOCCOCCOCCOCCOCCOCCNC(=O)CCN1C(=O)C=CC1=O [MI-6PEG-AANL-D5] ({Propanoyl(3-maleimido)-PEG6}-AANL-X5)"
observed_value = "1257.2 mm^3"

[[record]]
molecule = "CCCCN(CCc1c2c(nc3ccccc13)-c1cc3c(c(=O)n1C2)COC(=O)[C@]3(O)CC)C(=O)[C@H](CC(C)C)NC(=O)[C@H](CC(N)=O)NC(=O)[C@H](C)NC(=O)[C@H](C)NC(=O)CCOCCOCCOCCOCCOCCOCCNC(=O)CCN1C(=O)C=CC1=O [MI-6PEG-AANL-D4] ({Propanoyl(3-maleimido)-PEG6}-AANL-X2)"
observed_value = "1271.1 mm^3"

